Data credit: patent US8519149B2

tested.system: Recombinant human mPGES-1 (Homo sapiens, UniProt O14684)
Sequence (O14684 whole entry): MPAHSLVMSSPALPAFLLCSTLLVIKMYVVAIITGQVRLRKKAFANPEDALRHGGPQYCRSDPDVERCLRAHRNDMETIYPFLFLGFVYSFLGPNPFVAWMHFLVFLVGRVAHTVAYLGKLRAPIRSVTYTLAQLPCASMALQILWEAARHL
assay.text: In-vitro mPGES-1 enzyme inhibition assay (PGE2 formation from PGH2, HTRF detection)
condition.summary: class symbols; selected examples
pIC50: −log10 of the molar value.
measured.property: pIC50

Solved cases below.
[in] Any idea what pIC50 was measured for Cc1nc2c(o1)c(C(=O)Nc1cc(C(F)(F)F)ccc1F)cc1nc(Nc3c(F)cccc3Cl)[nH]c12 ?
[out] > 7.30

[in] State the recorded pIC50 for this entry: CC1(C)Cc2c(c(C(=O)Nc3ccc(Br)cc3)cc3nc(Nc4c(Cl)cccc4Cl)[nH]c23)O1
[out] > 7.30

[in] What value of pIC50 has been reported for the following compound? Cc1ccc(NC(=O)c2cc3nc(Nc4c(Cl)cncc4Cl)[nH]c3c3c2OC(C)(C)C3)c(Cl)c1
[out] > 7.30

[in] Give its pIC50 value. Item: CC1(C)Cc2c(c(C(=O)Nc3cccc(C4CC4)c3)cc3nc(Nc4c(F)cccc4Cl)[nH]c23)O1
[out] > 7.30

[in] Recorded pIC50 for Cc1nc2c(o1)c(C(=O)Nc1ccc(C(C)(C)C#N)cc1)cc1nc(Nc3c(Cl)cccc3Cl)[nH]c12 , please?
[out] < 7.00

[in] Fill blank: measured pIC50 of the compound CC1(C)Cc2c(c(C(=O)NC3(c4cccc(C(F)(F)F)c4)CC3)cc3nc(Nc4c(F)cccc4Cl)[nH]c23)O1 is ____.
[out] > 7.30

// moving on: another record for pIC50
[in] Param item = Cn1c(Nc2c(F)cccc2Cl)nc2cc(C(=O)Nc3ccc(C(F)(F)F)c[n+]3[O-])c3c(c21)CC(C)(C)O3 ; retrieve measured pIC50.
[out] < 7.00
